# measurement-target: Tyrosine-protein phosphatase non-receptor type 1 (Homo sapiens, UniProt P18031)
# Sequence (P18031 whole entry): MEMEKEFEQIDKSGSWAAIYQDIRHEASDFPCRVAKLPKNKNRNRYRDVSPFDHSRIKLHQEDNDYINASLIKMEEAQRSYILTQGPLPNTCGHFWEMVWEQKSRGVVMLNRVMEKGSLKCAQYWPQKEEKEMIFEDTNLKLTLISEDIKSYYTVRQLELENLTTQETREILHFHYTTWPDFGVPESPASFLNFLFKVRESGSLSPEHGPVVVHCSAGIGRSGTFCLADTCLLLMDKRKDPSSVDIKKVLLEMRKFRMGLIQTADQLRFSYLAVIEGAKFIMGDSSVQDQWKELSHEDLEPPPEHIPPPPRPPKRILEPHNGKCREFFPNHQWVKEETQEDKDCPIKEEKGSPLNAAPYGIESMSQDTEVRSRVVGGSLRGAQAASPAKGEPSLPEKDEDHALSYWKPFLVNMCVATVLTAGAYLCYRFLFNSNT
# test-details: Inhibition of PTP1B
pIC50: −log10 of the molar value.

>  <input-smiles>
O=C(O)c1cc2oc3c(Oc4ccc(-c5ccc(O)c(O)c5)cc4O)cc(O)cc3c2cc1O

>  <measurement-target>
Tyrosine-protein phosphatase non-receptor type 1 (Homo sapiens, UniProt P18031)

>  <pIC50>
5.43

$$$$
